Listed next: entries and their corresponding Phage binding ELISA CD28 scFv signal in presence of CD28.
target: T1, Anti-CD28 scFv (VH-linker 1-VL) (biotinylated (site not stated)); assay: phage ELISA, scFv wells pre-incubated with soluble CD28 (competitor); background signal 0.065
T1 construct: biotinylated and captured on neutravidin coated plates in the phage ELISA
T1 sequence (scFv, as listed by the source): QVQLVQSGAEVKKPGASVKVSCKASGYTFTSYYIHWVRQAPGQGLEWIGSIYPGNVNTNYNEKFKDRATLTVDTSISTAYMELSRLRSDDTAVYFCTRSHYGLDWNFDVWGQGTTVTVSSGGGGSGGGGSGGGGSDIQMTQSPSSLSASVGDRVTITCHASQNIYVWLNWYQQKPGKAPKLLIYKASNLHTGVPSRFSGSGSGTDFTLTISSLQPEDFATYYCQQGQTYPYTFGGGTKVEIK
In your answer, state the number alone without any accompanying words.

// below: answered binders
binder | result value
ITWCPSSMWNRCFI [Phage-70] | 0.11
MDWCPRALWNVCFN [Phage-89] | 0.472

Next item in the queue.
Exam item: Specify Phage binding ELISA CD28 scFv signal in presence of CD28 for MDWCPRFLWDECFN [Phage-83] and stop.
Marked response: 0.483

These data points were gathered from patent US20230357447A1.
